test system: COLO 205 colon; assay: NCI-60 one-dose screen, 48 h; conditions: 10 µM unless noted
This is part of a sample that, as a whole, favours compounds with a hit. Of some 83,000 tested, about 20% had one in any assay. Activity calls are given as the source filed them. Rule for the calls: active = growth percent below 10; inactive = the rest.
Reply using exactly one outcome from 1 (active), 0 (inactive)

molecule | discrete_label
O=C(/C=C/c1ccccc1)CC(c1ccccc1)N1CCOCC1 (configuration not stated) | 0
O=C(Nc1nc(-c2ccc(Cl)cc2)cs1)c1cc(O)c(O)c(O)c1 | 0
CC(C)(C)c1ccc(C(O)CCCN2CCC(C(O)(c3ccccc3)c3ccccc3)CC2)cc1 (configuration not stated) | 1
Cc1ccccc1NC(=O)c1cc2ccccc2cc1O | 0
CCN(CC)CCNc1ccc(Cl)cc1Cl | 0

In: Hi team, can someone confirm the assay call for COc1cc(/C=C/C(=O)Nc2cccnc2Nc2cc(OC)c(OC)c(OC)c2)cc(OC)c1OC ?
Out: 0

In: Hi team, can someone confirm the assay call for CSc1nc2c(c(=O)[nH]1)C(c1ccc(Cl)cc1)C1=C(N2)/C(=C/c2ccc(Cl)cc2)CNC1 (configuration not stated) ?
Out: 0
